Data origin, for the record: paper PMC6467762

- Tested on: P. falciparum Dd2 WT
- experimentSummary: microbe, parasite or virus in culture
- Format: cell-based
- setupConditions: Plasmodium falciparum, DD2|DSM265, read-out: DSM265 EC50
endpointLabel: EC50
# number then unit; no other words

Recall the recorded EC50 for `Cc1cc(Nc2ccc(S(F)(F)(F)(F)F)cc2)n2nc(C(C)(F)F)nc2n1` with P. falciparum Dd2 WT and state it.
4.6 nM

----------
- System: P. falciparum Dd2^Dhodh C276Y (CRISPR/Cas9-edited clones)
- experimentSummary: In vitro 72 h drug susceptibility assay, CRISPR/Cas9 study
- Format: cell-based
- setupConditions: Plasmodium falciparum, DD2|DSM265, read-out: DSM265 EC50
endpointLabel: EC50
# number then unit; no other words

Need EC50 of `Cc1cc(Nc2ccc(S(F)(F)(F)(F)F)cc2)n2nc(C(C)(F)F)nc2n1` , thanks.
120 nM

----------
- System: P. falciparum Dd2 parent
- experimentSummary: In vitro 72 h drug susceptibility assay, CRISPR/Cas9 study
- Type: cell-based
- setupConditions: Plasmodium falciparum, DD2|DSM265, read-out: DSM265 EC50
endpointLabel: EC50 (nM)
Quick reminder: number only, in nM, skip the unit.

Need EC50 of `Cc1cc(Nc2ccc(S(F)(F)(F)(F)F)cc2)n2nc(C(C)(F)F)nc2n1` , thanks.
4.8
